- EXPERIMENTAL TARGET: T1, Elastase from human neutrophils (human, UniProt P08246 30-247, limits assumed)
- T1 sequence (looked up): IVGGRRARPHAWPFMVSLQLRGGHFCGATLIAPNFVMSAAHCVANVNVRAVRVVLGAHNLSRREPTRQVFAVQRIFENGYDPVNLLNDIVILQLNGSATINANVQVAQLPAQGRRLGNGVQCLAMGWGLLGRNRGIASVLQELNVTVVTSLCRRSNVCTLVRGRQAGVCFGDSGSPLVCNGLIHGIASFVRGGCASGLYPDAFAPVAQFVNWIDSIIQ
- TEST PROTOCOL: cell-based or functional assay
OUTCOME MEASURE: % inhibition at 100 µM (%)
Answer in %, number only, no unit symbol.

Read the entry XCTKSDPPICS (HELM PEPTIDE1{[O=C([C@@H](N[*:1])C1CCCCC1)[*:2]].C.T.K.S.D.P.P.I.C.S.[dP].P}$PEPTIDE1,PEPTIDE1,2:R3-10:R3|PEPTIDE1,PEPTIDE1,1:R1-13:R2$$$V2.0; SMILES CC[C@H](C)[C@@H]1NC(=O)[C@@H]2CCCN2C(=O)[C@@H]2CCCN2C(=O)[C@H](CC(=O)O)NC(=O)[C@H](CO)NC(=O)[C@H](CCCCN)NC(=O)[C@H]([C@@H](C)O)NC(=O)[C@@H]2CSSC[C@H](NC1=O)C(=O)N[C@@H](CO)C(=O)N1CCC[C@@H]1C(=O)N1CCC[C@H]1C(=O)N[C@@H](C1CCCCC1)C(=O)N2) [Example 11] and write its reported % inhibition at 100 µM.
19
